FYI, the data here is from patent US12577242B2.

Catalogue of CC50 at 4 days values
# assay_notes: Cytotoxicity in MDBK cells (no BVD virus added)
# test_settings: bovine, MDBK cells (Madin-Darby bovine kidney), no virus added
The answer is to be given in µM; state only the numeric part.

Check out these entries, answers already filled in.
INPUT: May I ask what CC50 at 4 days has been recorded for Cc1scc(-c2nc3ccn(Cc4cc(-c5cc(F)ccc5F)no4)cc-3n2)c1C [CPD-49] ?
OUTPUT: 31

INPUT: One more molecule: Cc1ccc2nc(Cn3ccc4cc(-c5cc(OCCO)ccc5F)nc-4c3)sc2c1 [Compound XII]
OUTPUT: 5

INPUT: Also need Cc1ccc2nc(Cn3ccc4cc(-c5ccccc5CO)nc-4c3)sc2c1 [Compound XIII] , thanks.
OUTPUT: 18

INPUT: Repeat with COc1ccccc1-c1nc2ccn(Cc3nc4ccc(C)cc4s3)cc-2n1 [CPD-18]
OUTPUT: 20

Would you kindly look at the next entry?
INPUT: For Cc1cc(-c2nc3ccn(Cc4cc(-c5cc(F)ccc5F)no4)cc-3n2)cs1 [CPD-48] , what is its reported CC50 at 4 days?
OUTPUT: 27
